test system: Vero; assay: Maximum tolerated concentration (MTC), the lowest concentration that produced microscopically evident toxicity to confluent vero cells; format: functional, Chlorocebus sabaeus
Property: MTC; scope: individual compounds

These solved cases illustrate the format of a correct answer.
compound="Nc1ncnc2c1ncn2C1O[C@H](COP(=O)(O)C(=O)O)[C@@H](O)[C@H]1O (stereo not given in full)" target_desc=Vero recorded_metric=MTC data_value=">5000 µM"
compound=Nc1nc(O)c2ncn([C@H]3C[C@H](O)[C@@H](COP(=O)(O)C(=O)O)O3)c2n1 target_desc=Vero recorded_metric=MTC data_value="5000 µM"
compound="CCOC(=O)P(=O)(O)OC[C@H]1OC(n2cnc3c(O)nc(N)nc32)[C@H](O)[C@@H]1O (stereo not given in full)" target_desc=Vero recorded_metric=MTC data_value=">5000 µM"
compound="NC(=O)P(=O)(O)OC[C@H]1OC(n2cnc3c(N)ncnc32)[C@H](O)[C@@H]1O (stereo not given in full)" target_desc=Vero recorded_metric=MTC data_value=">5000 µM"

Next:
Enquiry: // returns reported MTC for input NC(=O)P(=O)(O)OC[C@H]1OC(n2cnc3c(O)nc(N)nc32)[C@H](O)[C@@H]1O (stereo not given in full)
Return: >5000 µM

====

tested on: Vero; test: Compound was tested for antiviral activity against Herpes simplex virus type 1(KOS); format: functional; settings: Chlorocebus sabaeus, read-out: ED50 (the source's name)
Property: EC50; scope: individual molecules

These solved cases illustrate the format of a correct answer.
molecule="CCOC(=O)P(=O)(O)OC[C@H]1OC(n2cnc3c(O)nc(N)nc32)[C@H](O)[C@@H]1O (some centres undefined)" data_value="> 5 mM"
molecule="O=C([O-])P(=O)([O-])[O-].[Na+].[Na+].[Na+] [FOSCARNET SODIUM]" data_value="0.17 mM"
molecule="CCOC(=O)P(=O)(O)OC[C@H]1OC(n2cnc3c(N)ncnc32)[C@H](O)[C@@H]1O (some centres undefined)" data_value="> 5 mM"
molecule="NC(=O)P(=O)(O)OC[C@H]1OC(n2cnc3c(N)ncnc32)[C@H](O)[C@@H]1O (some centres undefined)" data_value="> 5 mM"
molecule="NC(=O)P(=O)(O)OC[C@H]1OC(n2cnc3c(O)nc(N)nc32)[C@H](O)[C@@H]1O (some centres undefined)" data_value="> 5 mM"
molecule=Nc1ncnc2c1ncn2[C@H]1C[C@H](O)[C@@H](COP(=O)(O)C(=O)O)O1 data_value="1.8 mM"

Enquiry: Please state recorded EC50 (tested on Vero) of Nc1nc(O)c2ncn(C3O[C@H](COP(=O)(O)C(=O)O)[C@@H](O)[C@H]3O)c2n1 (some centres undefined)
Return: > 5 mM

Enquiry: Please state recorded EC50 (tested on Vero) of Nc1ncnc2c1ncn2C1O[C@H](COP(=O)(O)C(=O)O)[C@@H](O)[C@H]1O (some centres undefined)
Return: > 5 mM

Enquiry: Please state recorded EC50 (tested on Vero) of `Nc1nc(O)c2ncn([C@H]3C[C@H](O)[C@@H](COP(=O)(O)C(=O)O)O3)c2n1`
Return: > 5 mM

====

Property: EC50; scope: individual molecules
test system: Vero; test: Compound was tested for antiviral activity against measles virus; format: functional; conditions: Chlorocebus sabaeus, read-out: ED50 (the source's name)
All answers are understood in µM, so give the number only.

molecule="NC(=O)P(=O)(O)OC[C@H]1OC(n2cnc3c(O)nc(N)nc32)[C@H](O)[C@@H]1O (some centres undefined)" data_value=900
molecule="Nc1nc(O)c2ncn(C3O[C@H](COP(=O)(O)C(=O)O)[C@@H](O)[C@H]3O)c2n1 (some centres undefined)" data_value=330
molecule="Nc1ncnc2c1ncn2C1O[C@H](COP(=O)(O)C(=O)O)[C@@H](O)[C@H]1O (some centres undefined)" data_value=3000

Enquiry: // returns reported EC50 for input CCOC(=O)P(=O)(O)OC[C@H]1OC(n2cnc3c(O)nc(N)nc32)[C@H](O)[C@@H]1O (some centres undefined)
Return: 500

Enquiry: // returns reported EC50 for input NC(=O)P(=O)(O)OC[C@H]1OC(n2cnc3c(N)ncnc32)[C@H](O)[C@@H]1O (some centres undefined)
Return: 2800

Enquiry: // returns reported EC50 for input `Nc1ncnc2c1ncn2[C@H]1C[C@H](O)[C@@H](COP(=O)(O)C(=O)O)O1`
Return: 900

====

Property: VR; scope: individual compounds
test system: Vero; assay: Virus rating against Herpes simplex virus type 1 of strainHF; type: functional, Chlorocebus sabaeus

compound="CCOC(=O)P(=O)(O)OC[C@H]1OC(n2cnc3c(N)ncnc32)[C@H](O)[C@@H]1O (stereo partly drawn)" data_value=0.3
compound=Nc1nc(O)c2ncn([C@H]3C[C@H](O)[C@@H](COP(=O)(O)C(=O)O)O3)c2n1 data_value=0.22
compound="Nc1nc(O)c2ncn(C3O[C@H](COP(=O)(O)C(=O)O)[C@@H](O)[C@H]3O)c2n1 (stereo partly drawn)" data_value=0.2
compound="Nc1ncnc2c1ncn2C1O[C@H](COP(=O)(O)C(=O)O)[C@@H](O)[C@H]1O (stereo partly drawn)" data_value=0.18

Enquiry: // returns reported VR for input NC(=O)P(=O)(O)OC[C@H]1OC(n2cnc3c(O)nc(N)nc32)[C@H](O)[C@@H]1O (stereo partly drawn)
Return: 0

Enquiry: // returns reported VR for input `Nc1ncnc2c1ncn2[C@H]1C[C@H](O)[C@@H](COP(=O)(O)C(=O)O)O1`
Return: 1.08

Enquiry: // returns reported VR for input NC(=O)P(=O)(O)OC[C@H]1OC(n2cnc3c(N)ncnc32)[C@H](O)[C@@H]1O (stereo partly drawn)
Return: 0.28

Enquiry: // returns reported VR for input O=C([O-])P(=O)([O-])[O-].[Na+].[Na+].[Na+] [FOSCARNET SODIUM]
Return: 1.3

====

tested on: Vero; assay: Virus rating against vaccinia; type: functional, Chlorocebus sabaeus
Property: VR; scope: individual molecules

These solved cases illustrate the format of a correct answer.
molecule="CCOC(=O)P(=O)(O)OC[C@H]1OC(n2cnc3c(N)ncnc32)[C@H](O)[C@@H]1O (some centres undefined)" recorded_metric=VR data_value=0.23
molecule="O=C([O-])P(=O)([O-])[O-].[Na+].[Na+].[Na+] [FOSCARNET SODIUM]" recorded_metric=VR data_value=0.1
molecule=Nc1nc(O)c2ncn([C@H]3C[C@H](O)[C@@H](COP(=O)(O)C(=O)O)O3)c2n1 recorded_metric=VR data_value=0
molecule="CCOC(=O)P(=O)(O)OC[C@H]1OC(n2cnc3c(O)nc(N)nc32)[C@H](O)[C@@H]1O (some centres undefined)" recorded_metric=VR data_value=0
molecule="Nc1ncnc2c1ncn2C1O[C@H](COP(=O)(O)C(=O)O)[C@@H](O)[C@H]1O (some centres undefined)" recorded_metric=VR data_value=0.65

Next:
Enquiry: Please state recorded VR (tested on Vero) of Nc1nc(O)c2ncn(C3O[C@H](COP(=O)(O)C(=O)O)[C@@H](O)[C@H]3O)c2n1 (some centres undefined)
Return: 0

====

system: Vero; experiment: Compound was tested for antiviral activity against measles virus; type: functional; conditions: Chlorocebus sabaeus, read-out: ED50 (the source's name)
pEC50: −log10 of the molar value.
Property: pEC50; scope: individual compounds

These solved cases illustrate the format of a correct answer.
compound="CCOC(=O)P(=O)(O)OC[C@H]1OC(n2cnc3c(N)ncnc32)[C@H](O)[C@@H]1O (stereo partly drawn)" recorded_metric=pEC50 data_value="< 2.30"
compound="O=C([O-])P(=O)([O-])[O-].[Na+].[Na+].[Na+] [FOSCARNET SODIUM]" recorded_metric=pEC50 data_value="< 2.30"

Next:
Enquiry: // returns reported pEC50 for input `Nc1nc(O)c2ncn([C@H]3C[C@H](O)[C@@H](COP(=O)(O)C(=O)O)O3)c2n1`
Return: < 2.30

====

Property: VR; scope: individual compounds
test system: Vero; assay: Virus rating against vaccinia; format: functional, Chlorocebus sabaeus
Lab note: record just the number, no unit beside it.

compound=Nc1ncnc2c1ncn2[C@H]1C[C@H](O)[C@@H](COP(=O)(O)C(=O)O)O1 data_value=0

Enquiry: // returns reported VR for input NC(=O)P(=O)(O)OC[C@H]1OC(n2cnc3c(O)nc(N)nc32)[C@H](O)[C@@H]1O (stereo partly drawn)
Return: 0

Enquiry: // returns reported VR for input NC(=O)P(=O)(O)OC[C@H]1OC(n2cnc3c(N)ncnc32)[C@H](O)[C@@H]1O (stereo partly drawn)
Return: 0
